MEASURED ON: Short transient receptor potential channel 6 (Mus musculus)
PROCEDURE DETAILS: TRPC6 opening by TRPC4 activator hits – cell-based, HEK293, membrane potential dye, duplicate, selectivity assay for TRPC4 activator project, confirmation (AID 434950)
STATED CONDITIONS: HEK293 TRPC6, membrane potential fluorescence, at 10 µM; activation
Active and inactive are the calls of the source.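 The calls were made as follows: active = membrane potential signal rise above negative control mean plus 3 SD in both duplicates, also active in the earlier TRPC4 screen; inactive = the rest.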
QUANTITY NAME: outcome

INSERT INTO results (molecule, quantity_name, result) VALUES
  ('O=c1[nH][nH]c(-c2ccccc2)c1C=Nc1ccc(F)cc1F', 'outcome', 'inactive'),
  ('CCOC(=O)c1c(NC(=O)/C=C/C(=O)O)sc(C)c1-c1ccc(C(C)(C)C)cc1', 'outcome', 'inactive'),
  ('C/C(=N/Nc1ccnc2cc(Cl)ccc12)c1ccc(N)cc1', 'outcome', 'inactive'),
  ('Cc1ccc(-c2nnc(N3CCC(C)CC3)c3ccccc23)cc1C', 'outcome', 'inactive'),
  ('CCCc1c(O)nc(SCCN(CC)CC)[nH]c1=O', 'outcome', 'inactive'),
  ('COc1ccccc1N(C(=O)c1snc(C(N)=O)c1N)C(C(=O)NCc1ccccc1)c1ccc(O)cc1 (stereo unspecified)', 'outcome', 'inactive'),
  ('CNC(=S)N1CCN(C(c2ccccc2)c2ccccc2)CC1', 'outcome', 'inactive'),
  ('CN(C)CCCN(C(=O)c1ccc(S(=O)(=O)N2CCc3ccccc3C2)cc1)c1nc2c(F)cc(F)cc2s1', 'outcome', 'inactive'),
  ('COc1ccc(CSCCN)cc1Cl', 'outcome', 'inactive'),
  ('CC(Sc1nc2sc3c(c2c(=O)n1-c1ccccc1)CCCC3)C(=O)O (stereo unspecified)', 'outcome', 'inactive'),
  ('CCn1cc(CNCc2cn(-c3ccccc3C)nc2-c2ccc(OC)c(F)c2)cn1', 'outcome', 'inactive');
